Answer each item with its documented IC50.

Form field: IC50 recorded for COc1cc(/C=C2\CC(C)C/C(=C\c3cc(OC)c(OC)c(OC)c3Br)C2=O)c(Br)c(OC)c1OC (stereo not drawn) with Cholinesterase (Equus caballus) (enter value)
19.5 µM

Form field: IC50 recorded for COc1ccc(/C=C2\CC(C)C/C(=C\c3ccc(OC)c(OC)c3Cl)C2=O)c(Cl)c1OC (stereo not drawn) with Cholinesterase (Equus caballus) (enter value)
11.2 µM

Form field: IC50 recorded for "COc1cccc(/C=C2\CN(Cc3ccccc3)C/C(=C\c3cccc(OC)c3Cl)C2=O)c1Cl" with Cholinesterase (Equus caballus) (enter value)
> 100 µM

Form field: IC50 recorded for "COc1ccc(/C=C2\CN(C)C/C(=C\c3ccc(OC)c(OC)c3Cl)C2=O)c(Cl)c1OC" with Cholinesterase (Equus caballus) (enter value)
2.9 µM

Form field: IC50 recorded for "COc1ccc(/C=C2\CN(Cc3ccccc3)C/C(=C\c3ccc(OC)c(OC)c3Cl)C2=O)c(Cl)c1OC" with Cholinesterase (Equus caballus) (enter value)
> 100 µM

Form field: IC50 recorded for "COc1cccc(/C=C2\COC/C(=C\c3cccc(OC)c3Cl)C2=O)c1Cl" with Cholinesterase (Equus caballus) (enter value)
> 100 µM

Form field: IC50 recorded for "COc1cccc(/C=C2\CNC/C(=C\c3cccc(OC)c3Cl)C2=O)c1Cl" with Cholinesterase (Equus caballus) (enter value)
> 100 µM

Form field: IC50 recorded for "COc1cc(/C=C2\CCC/C(=C\c3cc(OC)c(OC)c(OC)c3Br)C2=O)c(Br)c(OC)c1OC" with Cholinesterase (Equus caballus) (enter value)
> 100 µM

Form field: IC50 recorded for "COc1cccc(/C=C2\CN(C)C/C(=C\c3cccc(OC)c3Cl)C2=O)c1Cl" with Cholinesterase (Equus caballus) (enter value)
> 100 µM

Form field: IC50 recorded for "COc1cc(/C=C2\CN(Cc3ccccc3)C/C(=C\c3cc(OC)c(OC)c(OC)c3Br)C2=O)c(Br)c(OC)c1OC" with Cholinesterase (Equus caballus) (enter value)
> 100 µM

Form field: IC50 recorded for "COc1ccc(/C=C2\CCC/C(=C\c3ccc(OC)c(OC)c3Cl)C2=O)c(Cl)c1OC" with Cholinesterase (Equus caballus) (enter value)
> 100 µM

Form field: IC50 recorded for "COc1ccc(/C=C2\COC/C(=C\c3ccc(OC)c(OC)c3Cl)C2=O)c(Cl)c1OC" with Cholinesterase (Equus caballus) (enter value)
> 100 µM

Form field: IC50 recorded for "COc1ccc(/C=C2\CNC/C(=C\c3ccc(OC)c(OC)c3Cl)C2=O)c(Cl)c1OC" with Cholinesterase (Equus caballus) (enter value)
16.7 µM

Form field: IC50 recorded for "COc1cc(/C=C2\CNC/C(=C\c3cc(OC)c(OC)c(OC)c3Br)C2=O)c(Br)c(OC)c1OC" with Cholinesterase (Equus caballus) (enter value)
68.8 µM

Form field: IC50 recorded for "COc1cccc(/C=C2\CCC/C(=C\c3cccc(OC)c3Cl)C2=O)c1Cl" with Cholinesterase (Equus caballus) (enter value)
> 100 µM

Form field: IC50 recorded for "COc1cc(/C=C2\COC/C(=C\c3cc(OC)c(OC)c(OC)c3Br)C2=O)c(Br)c(OC)c1OC" with Cholinesterase (Equus caballus) (enter value)
> 100 µM

Form field: IC50 recorded for COc1cccc(/C=C2\CC(C(C)C)C/C(=C\c3cccc(OC)c3Cl)C2=O)c1Cl (stereo not drawn) with Cholinesterase (Equus caballus) (enter value)
> 100 µM

Form field: IC50 recorded for COc1ccc(/C=C2\CC(C(C)C)C/C(=C\c3ccc(OC)c(OC)c3Cl)C2=O)c(Cl)c1OC (stereo not drawn) with Cholinesterase (Equus caballus) (enter value)
> 100 µM
